So I've got a bunch of sequences here, and I need their PBM binding z-score values.
# Test system: RARb homodimer (NR concentration 270 nM)
# Measurement Notes: PBM binding z-score (relative to random genomic background probes); higher = stronger binding; sequences stand for … in GC…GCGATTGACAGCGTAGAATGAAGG
Answer field: number only, no words.

What value of PBM binding z-score has been recorded for this entry: "TCTTGTAGATCAAGCAGGTGAAGAAAGCCTGAGT"
-0.296

What value of PBM binding z-score has been recorded for this entry: "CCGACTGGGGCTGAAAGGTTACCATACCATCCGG"
1.92

What value of PBM binding z-score has been recorded for this entry: "GCTTGTAGATCAAGGTTAAGCAAGACTAAGCTAA"
0.306

What value of PBM binding z-score has been recorded for this entry: "CCTGCTGGGCCAAGGTCATTGATCAGTCAAAGCA"
3.19

What value of PBM binding z-score has been recorded for this entry: "AGAACGAGGGCAATGAGTTGACAGCACGGGTGGC"
1.2

What value of PBM binding z-score has been recorded for this entry: "CAAACTAGGTCACCGGATGGTCAAAGTCCGCATG"
4.02

* * *

# System: RARa:RXR (NR concentration 270 nM, RXRa partner concentration 90 nM)
# Measurement Notes: PBM binding z-score (relative to random genomic background probes); higher = stronger binding; sequences stand for … in GC…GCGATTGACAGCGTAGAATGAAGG
Note to self: values exactly at 3 are Yes. So PBM binding z-score at or above 3 is Yes, below is No.

Would you say "CGCCCAAGGTCAATGCTAGGTCAGTGAAAGCATT" shows PBM binding z-score at minimum 3?
Yes

Would you say "CGAACTAGGTCAGAACAGAACAGTGAAGGATGAT" shows PBM binding z-score at minimum 3?
No

Would you say "AGAACGAGGGCACGCTGAGTTTATAGCAGAGTAG" shows PBM binding z-score at minimum 3?
No

Would you say "CCTTACGGGTCACCGACAGGTTATAGCATTTGGA" shows PBM binding z-score at minimum 3?
Yes

Would you say "CGTTCAAGGTCAAGGTCAGTGAAAGAGACTCGAA" shows PBM binding z-score at minimum 3?
Yes

Would you say "CGAACGGGGGCATGAGTTGATAGCAAATGCCGAT" shows PBM binding z-score at minimum 3?
No

Would you say "ATCCAAAGGTCGACGAGGTGAGTATACACCGTTT" shows PBM binding z-score at minimum 3?
Yes

Would you say "TTACCAAGGGGAAGGTCGTTGATCCCTCTGTAGA" shows PBM binding z-score at minimum 3?
No

Would you say "GGAACGAGGGCAAAGTTGTTAGCATCTGTCGACG" shows PBM binding z-score at minimum 3?
No

Would you say "CCTAGTTGGTCACGGTCACACACGCTATAGGTAC" shows PBM binding z-score at minimum 3?
No

Would you say "CAAACTAGGTCACCGGAAGGACAAAGTCCGCATG" shows PBM binding z-score at minimum 3?
Yes

* * *

# Tested on: PPARg DBDmut:RXRa IVT, anti-PPARg (DBD mutation: PPARg1 K132A/R137A, NR concentration 270 nM, RXRa partner concentration 90 nM)
# Measurement Notes: PBM binding z-score (relative to random genomic background probes); higher = stronger binding; sequences stand for … in GC…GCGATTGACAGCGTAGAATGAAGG
# label = bin(measured PBM binding z-score), where bins are class A (below -0.02), class B (-0.02 to below 1), class C (1 or more)

Which category fits this record: "TAGCCTAGGTCAGTTCGGGCCAGTATACGCTATA"
class A

Which category fits this record: "ATCGAAAGGACGAAGGTGAGTATACCCACCCGAA"
class A

Which category fits this record: "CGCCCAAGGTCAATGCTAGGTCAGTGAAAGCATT"
class A

Which category fits this record: "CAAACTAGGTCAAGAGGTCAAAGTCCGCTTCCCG"
class C

Which category fits this record: "AATAGTTGGTCAGCTGAGGTCACACACAATTCGG"
class C

Which category fits this record: "CCATACAGGTGAAAGGTAACTCAGTCTGGTACGC"
class B

Which category fits this record: "GCGTACGGGTCAAAGGTTATAGCATGAATAGAAT"
class B

Which category fits this record: "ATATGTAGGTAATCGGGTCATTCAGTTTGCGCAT"
class C

Which category fits this record: "TCTATTAGTTGGTTAGGGCAACCGAAACAGCGGA"
class C

Which category fits this record: "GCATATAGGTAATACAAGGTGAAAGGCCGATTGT"
class B

Which category fits this record: "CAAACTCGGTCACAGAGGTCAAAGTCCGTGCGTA"
class C

* * *

So I've got a bunch of sequences here, and I need their PBM binding z-score values.
# System: VDR homodimer (NR concentration 270 nM)
# Measurement Notes: PBM binding z-score (relative to random genomic background probes); higher = stronger binding; sequences stand for … in GC…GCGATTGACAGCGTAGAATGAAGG
Answer field: number only, no words.

What value of PBM binding z-score has been recorded for this entry: "GCTACTAGGTCAGGTTGGTCAGCTAACGGGTACG"
0.983

What value of PBM binding z-score has been recorded for this entry: "TCTCGGAGGACACGAACGGTCAGAGCTCGACATC"
-0.389

What value of PBM binding z-score has been recorded for this entry: "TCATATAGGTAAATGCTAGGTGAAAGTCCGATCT"
0.42

What value of PBM binding z-score has been recorded for this entry: "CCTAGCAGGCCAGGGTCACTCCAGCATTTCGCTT"
1.64

What value of PBM binding z-score has been recorded for this entry: "TGTCAAAGTTCAAAGGTAACATAAGTATCCACAC"
4.17

What value of PBM binding z-score has been recorded for this entry: "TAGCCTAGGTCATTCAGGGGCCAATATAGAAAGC"
2.13

What value of PBM binding z-score has been recorded for this entry: "ATCTCTAGGTAAAAAGTTCAGTGAAAGAGAGGAC"
1.56

What value of PBM binding z-score has been recorded for this entry: "ATCGAAAGGTCGAGGCGAGTATAGAGAAAGGGAA"
0.276

What value of PBM binding z-score has been recorded for this entry: "CCAAGTTGGTCAAGGTCACACACGCTATAGGTAC"
4.56

What value of PBM binding z-score has been recorded for this entry: "TCTATTAGTTGATTAGCGCAACCGAAACAGCGGA"
0.523

What value of PBM binding z-score has been recorded for this entry: "CAGACTGGGGCAAGGTTACCATAACGCACAGCCA"
0.0721

What value of PBM binding z-score has been recorded for this entry: "TATACAGGGTCAAAGGCCAGAGCACGAATGTCGA"
2.9

What value of PBM binding z-score has been recorded for this entry: "CGACCAAGGTGAACAAGGTCGTTGATTACTATTC"
1.82

What value of PBM binding z-score has been recorded for this entry: "CCTACTAGGTCATGGTCAGCTAATCTACAGTATG"
0.776

What value of PBM binding z-score has been recorded for this entry: "CCTTACGGGTCACTGACAGGTTATAGGATTTGGA"
1.28

What value of PBM binding z-score has been recorded for this entry: "CCTAGCAGGCCAATCTGGGTCACTCTAGGCTTGA"
-0.375

What value of PBM binding z-score has been recorded for this entry: "CATACAGGGTCAGCTACGCCAGAGTAGGGACGGC"
1.09

What value of PBM binding z-score has been recorded for this entry: "TCGAGGAGGTTAGTCGGGGCATTCAGCCAACATA"
1.04

What value of PBM binding z-score has been recorded for this entry: "GGAACGAGGGCAAAGTTGATAGAATCTGTCGACG"
1.42

What value of PBM binding z-score has been recorded for this entry: "TGAATGAGGTTAAACATCAGGGAACGTGGCGTCG"
0.833

What value of PBM binding z-score has been recorded for this entry: "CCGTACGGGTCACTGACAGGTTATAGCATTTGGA"
0.766

What value of PBM binding z-score has been recorded for this entry: "CGAACGCGGGCATGAGTTGATAGCAAATGCCGAT"
0.0939

What value of PBM binding z-score has been recorded for this entry: "CCAGACAGGTGAGAAGGTAATTCAGCCTCGATTA"
-0.0971

What value of PBM binding z-score has been recorded for this entry: "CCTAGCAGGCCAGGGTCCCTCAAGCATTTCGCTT"
-0.542

What value of PBM binding z-score has been recorded for this entry: "CCTTACGGGTCACTACAGGTTATAGCATCGGAGT"
1.31

What value of PBM binding z-score has been recorded for this entry: "AGAACGAGGGCGCGCTGAGTTGATAGCAGAGTAG"
0.824

What value of PBM binding z-score has been recorded for this entry: "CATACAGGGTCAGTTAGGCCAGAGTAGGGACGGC"
1.69

What value of PBM binding z-score has been recorded for this entry: "ATCGAAAGGTCGAGGTGTGTATAGAGAAAGGGAA"
0.444

What value of PBM binding z-score has been recorded for this entry: "GCTGCTAGGTCAACTGATGGTCAGTTAAAGCTCG"
-0.147

What value of PBM binding z-score has been recorded for this entry: "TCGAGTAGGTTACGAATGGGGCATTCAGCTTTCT"
-0.811

What value of PBM binding z-score has been recorded for this entry: "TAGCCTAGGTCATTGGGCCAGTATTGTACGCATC"
1.03

What value of PBM binding z-score has been recorded for this entry: "CCTGCTAGGTCATTGGTCAGCTAAAGCAGCTCGC"
1.27

What value of PBM binding z-score has been recorded for this entry: "TAGCCTAGGTCAGGGGCCAGTATACCACGCGAAC"
-0.245

What value of PBM binding z-score has been recorded for this entry: "CGTCCAAGGCCAGAGAGGTCAGTGAATGCCGAGT"
2.55

What value of PBM binding z-score has been recorded for this entry: "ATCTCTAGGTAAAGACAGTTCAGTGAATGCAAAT"
1.14

What value of PBM binding z-score has been recorded for this entry: "ACTTACGGGTCAACGAGGTTATAGTACGCGTATA"
4.38

What value of PBM binding z-score has been recorded for this entry: "CAAACTAGGTCAAGGTCACAGTCGGTTTGTGCCA"
4.27

What value of PBM binding z-score has been recorded for this entry: "TCATATAGGTAAAAGGTGAAAGTCGGTGTGGTAA"
0.737

What value of PBM binding z-score has been recorded for this entry: "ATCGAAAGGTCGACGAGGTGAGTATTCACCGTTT"
0.806

What value of PBM binding z-score has been recorded for this entry: "CCTACTGGGCCATCAGGTCATCGATATCAACGTT"
1.24

What value of PBM binding z-score has been recorded for this entry: "ACTATTAGTTGACTTAGGGCAACGGATACGACGC"
-0.0346

What value of PBM binding z-score has been recorded for this entry: "GATAAAGGGTCAAGGCCAGAGTACGCGTATTGAT"
2.36

What value of PBM binding z-score has been recorded for this entry: "GCGACTGGGGCAAAGGAGGTTACCATAAGGTTGG"
0.291

What value of PBM binding z-score has been recorded for this entry: "AGCTCTAGGTAACAAGTTCAGTGAAAGAGAGGAC"
2.64

What value of PBM binding z-score has been recorded for this entry: "CCTGCTAGGTCATGGTGAGCTAATCTACAGTATG"
-0.0752

What value of PBM binding z-score has been recorded for this entry: "GCTCGGCGGACAAGGTCAGAGCTTTGTCCGTAGA"
0.0541

What value of PBM binding z-score has been recorded for this entry: "ATCTTTAGGTAACAAGTTCAGTGAAAGAGAGGAC"
2.79

What value of PBM binding z-score has been recorded for this entry: "ATACCAACGTGATCGTGAGGTCGTTGATACTAAC"
2.32

What value of PBM binding z-score has been recorded for this entry: "TCATATAGGTAAAAGGTGGAAGTCGGTGTGGTAA"
0.281

What value of PBM binding z-score has been recorded for this entry: "CTCGAAAGATCGGTTGAGGTGAGTATACGGATAA"
-0.316

What value of PBM binding z-score has been recorded for this entry: "GTTTACGGGTCAAAGGTTATAGCATGAATAGAAT"
1.99
